# Tested on: Lolium perenne (LOLPE)
# testProtocol: Glasshouse assay for herbicidal activity (pre- and post-emergence), percentage phytotoxicity
# Assay type: in vivo
# testSettings: Lolium perenne, post-emergence, 360 h, 250 g/ha; post-emergence; 15 DAA; visual assessment (100%=total damage, 0%=no damage); read-out: Post-emergence herbicidal activity (percentage phytotoxicity) LOLPE POST
recordedEndpoint: pest or weed control at 250 g/ha (%)

- Cc1cc(Br)cc(C)c1C1C(=O)CC(CC(=O)NC(C)C)C1=O (stereo not shown) [Compound B140]: 90
- C=C(F)CNC(=O)CC1CC(=O)C(c2c(C)cc(C)cc2C)C1=O (stereo not shown) [Compound B92]: 90
- Cc1cc(C)c(C2C(=O)CC(CC(=O)NC(C)C(C)(C)C)C2=O)c(C)c1 (stereo not shown) [Compound B26]: 60
- Cc1cc(-c2ncc(Cl)cn2)cc(C)c1C1C(=O)C[C@H](CC(=O)NC(C)(C)C)C1=O (stereo partly shown) [Compound B50]: 100
- Cc1cc(C)c(C2C(=O)CC(CC(=O)NCC3(C)CC3(Cl)Cl)C2=O)c(C)c1 (stereo not shown) [Compound B82]: 70
- CCC(C)NC(=O)CC1CC(=O)C(c2c(C)cc(Br)cc2C)C1=O (stereo not shown) [Compound B120]: 90
- CCCN(CC1CC1)C(=O)CC1CC(=O)C(c2c(C)cc(C)cc2C)C1=O (stereo not shown) [Compound B79]: 80
- Cc1cc(C)c(C2C(=O)CC(CC(=O)NC3(C4CC4)CC3)C2=O)c(C)c1 (stereo not shown) [Compound B78]: 80
- Cc1cc(C)c(C2C(=O)CC(CC(=O)NCc3ncccc3C)C2=O)c(C)c1 (stereo not shown) [Compound B67]: 70
- Cc1cc(OCC(F)(F)F)cc(C)c1C1C(=O)CC(CC(=O)NC(C)(C)C)C1=O (stereo not shown) [Compound B139]: 80
- CCCNC(=O)CC1CC(=O)C(c2c(C)cc(-c3ncc(Cl)cc3F)cc2C)C1=O (stereo not shown) [Compound B144]: 100
- Cc1cc(-c2ncc(F)cc2F)cc(C)c1C1C(=O)CC(CC(=O)NCc2cccc(F)c2)C1=O (stereo not shown) [Compound B70]: 100
- Cc1cc(-c2ncc(Cl)cc2C#N)cc(C)c1C1C(=O)CC(CC(=O)NC(C)(C)C)C1=O (stereo not shown) [Compound B48]: 90
- Cc1cc(-c2ncc(F)cc2F)cc(C)c1C1C(=O)CC(CC(=O)NCc2cccc(Cl)c2)C1=O (stereo not shown) [Compound B33]: 90
- COCCCNC(=O)CC1CC(=O)C(c2c(C)cc(-c3ncc(F)cn3)cc2C)C1=O (stereo not shown) [Compound B106]: 100
- C#Cc1ccc(CNC(=O)CC2CC(=O)C(c3c(C)cc(C)cc3C)C2=O)cc1 (stereo not shown) [Compound B34]: 80
- Cc1cc(C)c(C2C(=O)CC(CC(=O)NCC=C(Cl)Cl)C2=O)c(C)c1 (stereo not shown) [Compound B159]: 90
- Cc1cc(-c2ncc(F)cn2)cc(C)c1C1C(=O)CC(CC(N)=O)C1=O (stereo not shown) [Compound B107]: 80
- Cc1cc(-c2ncc(F)cc2C#N)cc(C)c1C1C(=O)CC(CC(=O)NC(C)(C)C)C1=O (stereo not shown) [Compound B87]: 80
- C#CC(C)NC(=O)CC1CC(=O)C(c2c(C)cc(C)cc2C)C1=O (stereo not shown) [Compound B56]: 90
- COCCOCCCNC(=O)CC1CC(=O)C(c2c(C)cc(C)cc2C)C1=O (stereo not shown) [Compound B7]: 80
- Cc1cc(C)c(C2C(=O)CC(CC(=O)Nc3ccccn3)C2=O)c(C)c1 (stereo not shown) [Compound B64]: 80
- C=C(C)CNC(=O)CC1CC(=O)C(c2c(C)cc(-c3ncc(Cl)cc3F)cc2C)C1=O (stereo not shown) [Compound B94]: 100
- CCc1cc(-n2cc(Cl)cn2)cc(C)c1C1C(=O)CC(CC(=O)NC(C)(C)C)C1=O (stereo not shown) [Compound B135]: 100
- Cc1cc(-c2ncc(F)cc2F)cc(C)c1C1C(=O)CC(CC(=O)NCc2ccc(F)cc2)C1=O (stereo not shown) [Compound B72]: 100

---

# Test system: Alopecurus myosuroides (ALOMY)
# testProtocol: Glasshouse assay for herbicidal activity (pre- and post-emergence), percentage phytotoxicity
# Assay type: in vivo
# testSettings: Alopecurus myosuroides, pre-emergence, 480 h, Rate 250 g/ha; pre-emergence; visual assessment 20 DAA; 100%=total damage, 0%=no damage; read-out: Pre-emergence herbicidal activity (percentage phytotoxicity) ALOMY PRE
recordedEndpoint: pest or weed control at 250 g/ha (%)

- Cc1cc(-c2ccc(Cl)cn2)cc(C)c1C1C(=O)CC(CC(=O)NCc2cccc(F)c2)C1=O (stereo not drawn) [Compound B357]: 80
- Cc1cc(-c2ccc(Cl)cc2)cc(C)c1C1C(=O)CC(CC(=O)NC(C)(C)C#N)C1=O (stereo not drawn) [Compound B378]: 70
- COCC(C)(C)NC(=O)CC1CC(=O)C(c2c(C)cc(-c3ccc(Cl)cn3)cc2C)C1=O (stereo not drawn) [Compound B364]: 100
- Cc1cc(-c2ccc(F)cn2)cc(C)c1C1C(=O)CC(CC(=O)NC/C=C/Cl)C1=O (stereo not drawn) [Compound B400]: 100
- C#Cc1cc(-c2ncc(F)cc2F)cc(C)c1C1C(=O)CC(CC(=O)NC(C)(C)C)C1=O (stereo not drawn) [Compound B381]: 70
- C=Cc1cc(-c2ncc(F)cc2F)cc(C)c1C1C(=O)CC(CC(=O)NC(C)(C)C)C1=O (stereo not drawn) [Compound B382]: 60

---

Listing of entries alongside the reported pest or weed control at 250 g/ha.
# Tested on: Alopecurus myosuroides (ALOMY)
# testProtocol: Glasshouse assay for herbicidal activity (pre- and post-emergence), percentage phytotoxicity
# Assay type: in vivo
# testSettings: Alopecurus myosuroides, pre-emergence, 480 h, Rate 250 g/ha; pre-emergence; assessed visually 20 DAA; 100%=total damage, 0%=no damage; read-out: Pre-emergence herbicidal activity (percentage phytotoxicity) ALOMY PRE
recordedEndpoint: pest or weed control at 250 g/ha (%)

• Cc1cc(C)c(C2C(=O)CC(CC(=O)NCc3ccccc3C#N)C2=O)c(C)c1 (stereo not shown) = 0
• Cc1cc(-n2cc(Cl)cn2)cc(C)c1C1C(=O)CC(CC(=O)NC2(c3ccccn3)CC2)C1=O (stereo not shown) = 70
• Cc1cc(C)c(C2C(=O)CC(CC(=O)NCc3ccc(OC(F)(F)F)cc3)C2=O)c(C)c1 (stereo not shown) = 70
• Cc1cc(-c2ncc(Cl)cc2F)cc(C)c1C1C(=O)CC(CC(=O)NCc2ccsc2Br)C1=O (stereo not shown) = 0

---

# System: Alopecurus myosuroides (ALOMY)
# testProtocol: Glasshouse assay for herbicidal activity (pre- and post-emergence), percentage phytotoxicity
# Type: in vivo
# testSettings: Alopecurus myosuroides, pre-emergence, 480 h, 250 g/ha; pre-emergence; 20 DAA; visual assessment (100%=total damage, 0%=no damage); read-out: Pre-emergence herbicidal activity (percentage phytotoxicity) ALOMY PRE
# Procedure: Test—Glasshouse Assay for Herbicidal Activity Seeds of a variety of monocotyledonous and dicotyledonous test plants are sown in standard soil in pots. The plants are cultivated for one day (for pre-emergence (PRE)) or for about 12 days (for post-emergence (POST)) under controlled conditions in a glasshouse (warm climate species at 24/18° C., cool climate species at 20/16° C., both at day/night; 16 hours light; 65% humidity). […]
recordedEndpoint: pest or weed control at 250 g/ha (%)

• Cc1cc(C)c(C2C(=O)CC(CC(=O)NC3CC3(F)F)C2=O)c(C)c1 (stereo not drawn) = 60
• COc1ccc(NC(=O)CC2CC(=O)C(c3c(C)cc(C)cc3C)C2=O)cc1OC (stereo not drawn) = 40
• C=C(C)CNC(=O)CC1CC(=O)C(c2c(C)cccc2CC)C1=O (stereo not drawn) = 100
• Cc1ccc(CNC(=O)CC2CC(=O)C(c3c(C)cc(C)cc3C)C2=O)cc1 (stereo not drawn) = 70
• C=CCNC(=O)CC1CC(=O)C(c2c(C)cc(C#CC)cc2C)C1=O (stereo not drawn) = 100
• CCc1cccc(C)c1C1C(=O)CC(CC(=O)N2CCOCC2)C1=O (stereo not drawn) = 70

---

# System: Alopecurus myosuroides (ALOMY)
# testProtocol: Glasshouse assay for herbicidal activity (pre- and post-emergence), percentage phytotoxicity
# Format: in vivo
# testSettings: Alopecurus myosuroides, pre-emergence, 480 h, 250 g/ha; pre-emergence; 20 DAA; visual assessment (100%=total damage, 0%=no damage); read-out: Pre-emergence herbicidal activity (percentage phytotoxicity) ALOMY PRE
recordedEndpoint: pest or weed control at 250 g/ha (%)

* Cc1cc(C)c(C2C(=O)CC(CC(=O)N(C)C(C)(C)C)C2=O)c(C)c1 (centres unmarked) [Compound B80] | 90
* Cc1cc(-c2ncc(C#N)cc2Cl)cc(C)c1C1C(=O)CC(CC(=O)NC(C)(C)C)C1=O (centres unmarked) [Compound B83] | 80
* Cc1cc(C)c(C2C(=O)CC(CC(=O)NCC#CCCl)C2=O)c(C)c1 (centres unmarked) [Compound B36] | 50
* Cc1cc(C)c(C2C(=O)CC(CC(=O)NC(C)(C)c3ccccc3)C2=O)c(C)c1 (centres unmarked) [Compound B29] | 30
* Cc1cc(-c2ncc(F)cc2F)cc(C)c1C1C(=O)C[C@H](CC(=O)NC(C)(C)C)C1=O (some centres unmarked) [Compound B52] | 90
* C/C=C/c1cc(C)c(C2C(=O)CC(CC(N)=O)C2=O)c(CC)c1 (centres unmarked) [Compound B153] | 90
* Cc1cc(-c2ncc(Cl)cc2F)cc(C)c1C1C(=O)CC(CC(=O)NCC2CC2C(F)F)C1=O (centres unmarked) [Compound B143] | 90
* Cc1cc(-c2ncc(F)cn2)cc(C)c1C1C(=O)CC(CC(=O)NCC(C)C)C1=O (centres unmarked) [Compound B112] | 100
